# assay_system: T1, Alexa Fluor 488-labelled Mad2^F141A (UniProt Q13257 1-205, F141A, Alexa 488 C5 maleimide, covalent label (residue not stated))
# T1 construct: Mad2, full length, Phe141 replaced by Ala; monomeric O-Mad2 after labelling; Labelled form of m2; also called Alexa-Mad2^F141A; Alexa-488-Mad2^F141A; source: purified as described [14], labelled with Alexa 488 C5 maleimide, separated from free dye on Superdex-75
# T1 sequence (Q13257 whole entry F141A): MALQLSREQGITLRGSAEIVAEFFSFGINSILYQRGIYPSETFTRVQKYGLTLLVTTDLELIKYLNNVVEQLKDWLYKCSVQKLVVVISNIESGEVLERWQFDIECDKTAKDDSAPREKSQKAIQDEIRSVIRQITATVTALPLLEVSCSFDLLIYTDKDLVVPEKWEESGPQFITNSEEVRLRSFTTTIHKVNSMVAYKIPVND
# test_protocol: real-time confocal fluorescence on a surface in a flow chamber; biotin-Cdc20 111-138 (~1 uM) held on a neutravidin-coated chamber surface; Alexa-488-Mad2 injected at 1-8 uM in PBS; fluorescence on the surface followed; constants from a global fit of rate equations
# recorded_conditions: both partners purified
Ends that are not written are not given here. * marks the point of attachment. Biotin = O=C1N[C@H]2[C@H](CS[C@H]2CCCCC(=O)*)N1
quantity: Kd (nM)
Kindly answer with a numeric value in nM, unit omitted.

If you can, please state the reported Kd value of Biotin-EHQKAWALNLNGFDVEEAKILRLSGKPQ (peptide, UniProt Q12834 111-138, looked up, Cdc20, residues 111-138; Held on the neutravidin-coated surface of the flow chamber through its biotin; also called biotinylated Cdc20 peptide; biotin-Cdc20 peptide^111-138; source: synthetic peptide) [synthetic biotin-Cdc20^111-138] . 100

Reference for the values: paper PMC2621267
